Entries and their Kinetic solubility Sk values follow.
Assay: Kinetic solubility
Assay type: physicochemical
Just the number please, in µM, no unit attached.

# annotated cases, reported Kinetic solubility Sk shown
Challenge: Could you tell me which Kinetic solubility Sk is on file for O=c1c(OCCO)c(-c2ccc(O)c(O)c2)oc2cc(O)cc(O)c12 [(9b)] ?
Response given: 167

Challenge: Proceed to CC(c1ccc(O)c(O)c1)c1cc(=O)c2c(O)cccc2o1 (stereo not shown) [(13b)]
Response given: 165

Challenge: Proceed to CCCCOc1c(-c2ccc(O)c(O)c2)oc2cc(O)cc(O)c2c1=O [(9a)]
Response given: 156

Challenge: Proceed to O=c1cc(CCc2ccc(O)c(O)c2)oc2cccc(O)c12 [(20)]
Response given: 67

Challenge: Proceed to CCCc1c(-c2ccc(O)c(O)c2)oc2cc(O)cc(O)c2c1=O [(5b)]
Response given: 13

Next:
Challenge: Could you tell me which Kinetic solubility Sk is on file for Cc1c(-c2ccc(O)c(O)c2)oc2cc(O)cc(O)c2c1=O [(5a)] ?
Response given: 32

Challenge: Proceed to O=c1c(OCCCO)c(-c2ccc(O)c(O)c2)oc2cc(O)cc(O)c12 [(9c)]
Response given: 231

Challenge: Proceed to O=C(Nc1ccc(O)c(O)c1)c1cc(=O)c2c(O)cccc2o1 [(24a)]
Response given: 65
